Test system: Candida albicans
Details: Concentration 32 ug.mL-1; ASSAY_TEST Inhibition of Fungal Growth; detection method Absorption (OD530)
Description: Antifungal activity against Candida albicans ATCC 90028 (CO-ADD:FG_001); MIC in YNB media using NBS plates, by OD630
Measured potencies and affinities stand elsewhere.
Assay readout: Inhibition (%)

Compound structure string	Target or system	Unit info	Observed value
COc1ccc(NC(=O)Cn2nc3ccc(SC4CCCCC4)nn3c2=O)c(OC)c1	Candida albicans	%	-0.43
Cc1ccc(NC(=O)Cn2nc3c(SCc4ccccc4)nccn3c2=O)cc1C	Candida albicans	%	15.8
Cc1ccccc1Oc1nccn2c(=O)n(CC(=O)Nc3ccc(Cl)c(Cl)c3)nc12	Candida albicans	%	2.23
CCc1ccc(N(Cc2cccc(OC)c2)S(=O)(=O)c2cccn3c(C)nnc23)cc1	Candida albicans	%	-0.37
Cc1cccc(C)c1NC(=O)Cn1nc2c(Sc3cccc(F)c3)nccn2c1=O	Candida albicans	%	-1.35
CC(C)(C)NC(=O)Cn1nc2n(Cc3cccs3)c(=O)c3sccc3n2c1=O	Candida albicans	%	-0.71
COc1ccc2[nH]cc(C(=O)CSc3nnc4c(=O)n(-c5cccc(Cl)c5C)ccn34)c2c1	Candida albicans	%	2.95
O=C(Cn1nc2c(N3CCOCC3)nccn2c1=O)NCc1cccs1	Candida albicans	%	2.44

* * *

Documented Inhibition across a set of compounds
Tested on: Candida albicans
Conditions: Concentration 32 ug.mL-1; ASSAY_TEST Inhibition of Fungal Growth; detection method Absorption (OD530)
Entries with a potency or affinity are not part of this list.

Compound	Inhibition, %
CCc1ccccc1NC(=O)CSc1nnc2ccc(C(=O)Nc3cccc(F)c3)cn12	8.2
CCc1ccccc1NC(=O)Cn1nc2c(SC3CCCCC3)nccn2c1=O	-0.63
COc1ccc(C(C)NC(=O)CCc2nnc3ccc(-c4ccc(C)c(C)c4)nn23)cc1OC (centres undefined)	3.04
CC(C)NC(=O)Cn1nc2n(Cc3ccco3)c(=O)c3sccc3n2c1=O	0.87
CCc1ccc(N(Cc2cccc(OC)c2)S(=O)(=O)c2cccn3cnnc23)cc1	4.11
CCOc1ccc(-n2ccn3c(SCC(=O)c4ccc(F)cc4)nnc3c2=O)cc1	2.02
Cc1cc(C)c(NC(=O)Cn2nc3ccc(-c4ccc(C)c(C)c4)nn3c2=O)c(C)c1	0.76
CCc1ccc(N(Cc2cccc(Cl)c2)S(=O)(=O)c2cccn3c(C)nnc23)cc1	9.1
O=c1n(Cc2cccc(Br)c2)nc2ccc(-c3ccccc3)nn12	5.28
O=c1n(Cc2ccc(Cl)cc2)nc2ccc(-c3ccccc3)nn12	2.75
Cc1ccccc1Nc1cc(C)n2c(=O)n(CCOc3ccc(F)cc3)nc2n1	-1.22
CCOC(=O)c1ccc(NC(=O)Cn2nc3ccc(C(=O)Nc4cccc(C)c4)cn3c2=O)cc1	1.34
COc1cccc(-n2ccn3c(SCC(=O)c4ccc(F)cc4)nnc3c2=O)c1	2.59
CCOc1ccc(C(=O)Cn2nc3n(CCC(C)C)c(=O)c4sccc4n3c2=O)cc1	2.69
CCOc1ccc(-n2ccn3c(SC(C)C(=O)Nc4ccc5c(c4)OCCO5)nnc3c2=O)cc1 (centres undefined)	0.98
Cc1ccc(NC(=O)Cn2nc3ccc(SC(C)(C)C)nn3c2=O)cc1Cl	1.72
COc1ccc(OC)c(NC(=O)Cn2nc3c4cc(-c5ccc(Cl)cc5)nn4ccn3c2=O)c1	-0.3
Cc1ccc2c(c1)N(C(=O)Cn1nc3ccc(SCc4ccc(Cl)cc4)nn3c1=O)CCO2	29.58
Cc1cc(C)cc(Nc2nc(C)cc3nn(CC(=O)N(C)c4cccc(C)c4)c(=O)n23)c1	2.11
Cc1cc2nn(CC(=O)Nc3ccc(C)c(F)c3)c(=O)n2c(Nc2ccc(C)c(F)c2)n1	19.28
COc1ccc(N(Cc2cccc(F)c2)S(=O)(=O)c2ccc3nncn3c2)cc1	3.57
CCc1nnc2c(S(=O)(=O)N(Cc3cc(F)cc(F)c3)c3ccccc3)cccn12	6.55
Cc1ccc(C)c(NC(=O)Cn2nc3c(Sc4ccccc4)nccn3c2=O)c1	1.24
CCCCc1ccc(NC(=O)Cn2nc3ccc(C(=O)Nc4ccc(OC)cc4)cn3c2=O)cc1	18.36
Cc1nnc2c(SCC(=O)Nc3ccc(Br)cc3F)nc3ccccc3n12	0.1
CCOc1ccccc1NC(=O)Cn1nc2c3cc(-c4ccc(Cl)cc4)nn3ccn2c1=O	2.9
O=C(Cn1nc2ccc(-c3ccccc3)nn2c1=O)Nc1cccc(Cl)c1	18.56
COc1ccc(NC(=O)Cn2nc3c(Oc4ccccc4)nccn3c2=O)cc1	3.81
CCOC(=O)c1ccc(NC(=O)Cn2nc3c4cc(-c5ccc(C)cc5)nn4ccn3c2=O)cc1	7.19
Cn1c(=O)c2ccc(C(=O)NC3CCCCC3)cc2n2c(=O)n(Cc3cccc(C(F)(F)F)c3)nc12	1.42
Cc1cc(C)cc(N(Cc2cc(C)ccc2C)S(=O)(=O)c2cccn3c(C)nnc23)c1	1.02
Cc1ccc(Sc2nccn3c(=O)n(CC(=O)Nc4ccc(F)c(Cl)c4)nc23)c(C)c1	10.6
Cc1nnc2ccc(S(=O)(=O)N(Cc3ccccc3Cl)c3ccc(F)cc3)cn12	5.22
Cc1cc2nn(CC(=O)Nc3cc(F)ccc3F)c(=O)n2c(Nc2ccc(F)c(C)c2)n1	1.83

* * *

Tested on: Candida albicans
Conditions: Concentration 32 ug.mL-1; ASSAY_TEST Inhibition of Fungal Growth; detection method Absorption (OD530)
Measured potencies and affinities stand elsewhere.
Documented Inhibition across a set of compounds

Compound structure string	Inhibition / %
Cc1ccc(CNC(=O)CSc2nnc3c4cc(-c5ccc(C)cc5)nn4ccn23)cc1	-0.39
Cc1cc2nn(CC(=O)NCc3ccccc3)c(=O)n2c(-c2ccc(C(F)(F)F)cc2)n1	22.82
O=C(CSc1nc2ccccc2n2c(-c3ccccc3)nnc12)Nc1ccc(Br)cc1	10.16
COc1ccc(-c2cc3c4nn(CC(=O)Nc5c(C)cccc5C)c(=O)n4ccn3n2)cc1	7.22
COc1ccc(-c2cc3c4nnc(SCC(=O)NCc5ccc(Cl)cc5)n4ccn3n2)cc1	-0.75
CCOc1ccc(-n2ccn3c(SCC(=O)c4ccccc4)nnc3c2=O)cc1	12.91
O=C1CCCN1c1ccc(Cn2nc3ccc(-c4ccccc4)nn3c2=O)cc1	-0.02
COc1ccc(-c2cc3c4nn(CC(=O)Nc5cc(C)ccc5OC)c(=O)n4ccn3n2)cc1	13.11
Cc1ccc(NC(=O)Cn2nc3c(N4CCOCC4)nc4ccccc4n3c2=O)cc1C	-0.6
COc1ccccc1Cn1c(=O)c2sccc2n2c(=O)n(Cc3c(F)cccc3Cl)nc12	-2.27
COc1cccc(-n2ccn3c(SCC(=O)c4ccc(OC)c(OC)c4)nnc3c2=O)c1	4.83
COc1ccc(CCn2c(=O)c3sccc3n3c(=O)n(CC(=O)c4ccccc4)nc23)cc1OC	0.73
COc1ccc(CNC(=O)CSc2nnc3c4cc(-c5ccc(OC)cc5)nn4ccn23)cc1	1.93
CCOc1ccc(-n2ccn3c(=O)n(CC(=O)Nc4ccc(Br)cc4)nc3c2=O)cc1	2.12

* * *

Documented Inhibition across a set of compounds
Tested on: Klebsiella pneumoniae
Conditions: Concentration 32 ug.mL-1;; ASSAY_TEST Inhibition of Bacterial Growth; detection method Absorption (OD600); MEDIA CAMHB; plate type 384well; NBS; CORNING #3640; time 18 hr
Description: Antibacterial activity against Klebsiella pneumoniae MDR ATCC 70063 (CO-ADD:GN_003); MIC in CAMBH media using NBS plates, by OD(600)
Measured potencies and affinities stand elsewhere.

Compound	Inhibition / %
Cc1cc2nn(CC(=O)Nc3ccc(F)c(F)c3)c(=O)n2c(Nc2ccc(C)c(F)c2)n1	13.08
COC(=O)c1cccc(NC(=O)Cn2nc3ccc(-c4ccc(C)c(C)c4)nn3c2=O)c1	6.94
CC(C)c1ccc(NC(=O)Cn2nc3ccc(SCc4ccc(Cl)cc4)nn3c2=O)cc1	6.44
O=C(CSc1nnc2c(=O)n(-c3ccc(Br)cc3)ccn12)Nc1cccc(Cl)c1	6.37
COc1ccc(CN(c2ccc(OC)cc2)S(=O)(=O)c2ccc3nnc(C)n3c2)cc1	9.27
CCCCOc1ccc(-c2cc3c4nnc(SCC(=O)Nc5cc(C)ccc5OC)n4ccn3n2)cc1	-4.93
COc1cccc(NC(=O)Cn2nc3ccc(SCc4ccc(Cl)cc4)nn3c2=O)c1	6.69
Cc1cc2nn(CC(=O)Nc3cc(F)ccc3C)c(=O)n2c(Nc2ccc(F)cc2)n1	8.72
Cc1ccc(Sc2nccn3c(=O)n(CC(=O)Nc4ccccc4C)nc23)c(C)c1	6.75
Cc1ccc(-c2cc3c4nn(CC(=O)Nc5ccc6c(c5)OCO6)c(=O)n4ccn3n2)cc1	10
Cc1nnc2ccc(S(=O)(=O)N(Cc3ccc(F)cc3)c3ccc(Cl)cc3)cn12	9.19
CCOc1ccccc1NC(=O)Cn1c(=O)c2nnc(C(C)C)n2c2ccccc21	4.41
Cc1cc2nn(CC(=O)Nc3ccccc3F)c(=O)n2c(Nc2ccc(C)c(F)c2)n1	4.36
COc1ccc(NC(=O)Cn2nc3c(N4CCCC4)nccn3c2=O)cc1Cl	15.87
CCCCn1c(=O)c2sccc2n2c(=O)n(CC(=O)NC(C)CC)nc12 (stereo not given)	-2.58
Cc1ccc(Cl)cc1N1CCN(C(=O)CCc2nnc3c4cc(-c5ccccc5)nn4ccn23)CC1	5.47
Cc1ccc(Oc2nccn3c(=O)n(CC(=O)Nc4ccc(C)cc4Br)nc23)cc1	1.71
CC1CCCN(c2nccn3c(=O)n(CC(=O)Nc4ccc5c(c4)OCO5)nc23)C1 (stereo not given)	1.66
COc1ccc(CCNC(=O)Cn2nc3c(N4CCOCC4)nccn3c2=O)cc1OC	17.72
COc1ccc(-c2nc(CSc3nc4ccccc4n4c(C(C)C)nnc34)c(C)o2)cc1OC	-2.06
COc1ccc(-c2cc3c4nn(CC(=O)Nc5cccc(C(C)=O)c5)c(=O)n4ccn3n2)cc1	3.99
COc1ccc(N2CCN(C(=O)Cn3nc4c(Sc5cccc(C)c5)nccn4c3=O)CC2)cc1	-3.27
COc1ccc(-n2ccn3c(=O)n(Cc4cc(C)ccc4C)nc3c2=O)cc1Cl	9.01
Cc1nnc2c(=O)n(CC(=O)Nc3ccc(Br)cc3)c3ccccc3n12	3.12
Cc1ccc(Cl)cc1NC(=O)CSc1nnc2ccc(C(=O)Nc3cccc(F)c3)cn12	3.53
